B1: library; numbered along this chain (parent)
chain: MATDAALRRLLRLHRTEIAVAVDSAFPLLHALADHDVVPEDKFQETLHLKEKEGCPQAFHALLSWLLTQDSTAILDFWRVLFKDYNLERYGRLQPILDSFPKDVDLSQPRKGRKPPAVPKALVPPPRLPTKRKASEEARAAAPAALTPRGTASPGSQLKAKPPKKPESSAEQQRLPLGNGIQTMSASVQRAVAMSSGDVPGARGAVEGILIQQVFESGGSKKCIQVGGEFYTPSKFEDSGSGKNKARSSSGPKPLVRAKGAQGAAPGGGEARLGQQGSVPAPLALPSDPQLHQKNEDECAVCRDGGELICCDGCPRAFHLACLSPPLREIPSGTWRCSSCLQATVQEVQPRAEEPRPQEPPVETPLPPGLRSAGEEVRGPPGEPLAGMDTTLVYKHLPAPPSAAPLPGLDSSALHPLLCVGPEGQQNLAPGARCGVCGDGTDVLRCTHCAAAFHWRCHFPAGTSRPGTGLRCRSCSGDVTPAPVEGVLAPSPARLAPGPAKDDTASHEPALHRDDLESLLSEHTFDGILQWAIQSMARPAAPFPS

variants of: B1; experiment: AIRE transcriptional activation functional score (insulin promoter-GFP; nonsense median 0, synonymous median 1) (normalised score); higher = higher AIRE activity (more reporter activation); conditions: with insulin promoter-GFP reporter in HEK293
# binarize AIRE transcriptional activation functional score: threshold 1 inclusive, high side 1, low side 0

{"Mutation code": "Q173K", "Group label": 1}

(Q) Confirm if AIRE transcriptional activation functional score reported for the variant F43T is 1 or above.
(A) 0

(Q) Exam item: decide whether the reported AIRE transcriptional activation functional score for A264V is at least 1.
(A) 1

(Q) Exam item: decide whether the reported AIRE transcriptional activation functional score for N244A is at least 1.
(A) 0

(Q) Form field: AIRE transcriptional activation functional score at least 1? Entry: H458L
(A) 0

(Q) Could you please find out whether E88Q has AIRE transcriptional activation functional score that meets 1 or exceeds it?
(A) 1

(Q) Has L11R a recorded AIRE transcriptional activation functional score greater than or equal to 1?
(A) 0

(Q) Confirm if AIRE transcriptional activation functional score reported for the variant H14M is 1 or above.
(A) 0

(Q) Would you say L370R shows AIRE transcriptional activation functional score at minimum 1?
(A) 0

(Q) Can C434W be said to have AIRE transcriptional activation functional score at or above 1?
(A) 0

(Q) Please tell me: is the variant T46I at or over 1 in terms of AIRE transcriptional activation functional score?
(A) 0

(Q) Is the recorded value of AIRE transcriptional activation functional score equal to or greater than 1 for this variant? P27I
(A) 0

(Q) Form field: AIRE transcriptional activation functional score at least 1? Entry: V279P
(A) 1

(Q) Say whether R15T shows AIRE transcriptional activation functional score of 1 or more.
(A) 0

(Q) Can Q349V be said to have AIRE transcriptional activation functional score at or above 1?
(A) 1

(Q) Quick check, AIRE transcriptional activation functional score >= 1? L97R
(A) 0

(Q) Quick check: does Q172W have AIRE transcriptional activation functional score greater than or equal to 1?
(A) 1

(Q) AIRE transcriptional activation functional score >= 1 for A142H ?
(A) 0

(Q) Does AIRE transcriptional activation functional score meet or surpass 1 for G486T ?
(A) 0
